# key: entry, value: damage to plant, Setaria faberi (SETFA)
System: Setaria faberi (SETFA)
Assay: Example B2 herbicidal action, post-emergence, pots in glasshouse; also: test concentration or dose not given here
Assay type: in vivo
Conditions: Application post-emergence, evaluated after 13 days (100=total damage to plant; 0=no damage to plant)
Procedure: Seeds of a variety of test species were sown in standard soil in pots. […] After 13 days, the test was evaluated (100=total damage to plant; 0=no damage to plant).
READOUT_LABEL: damage to plant, Setaria faberi (SETFA)

>>> readout_number("CCn1c(=O)c(-c2ccc(C(F)(F)F)cc2Br)c(OC(=O)C(C)(C)C)c2nccnc21 [Compound C147]")
0
>>> readout_number("Cn1c(=O)c(-c2c(F)ccc(Cl)c2Cl)c(OC(=O)C(C)(C)C)c2nccnc21 [Compound C163]")
0
>>> readout_number("O=c1[nH]c2nccnc2c(O)c1-c1cc(F)c(Cl)cc1Cl [Compound A39]")
7
>>> readout_number("CC(C)(C)C(=O)Oc1c(-c2ccccc2Br)c(=O)[nH]c2nccnc12 [Compound B51]")
6
>>> readout_number("CCn1c(=O)c(-c2c(Cl)cc(OC(F)(F)F)cc2Cl)c(OC(=O)C(C)(C)C)c2nccnc21 [Compound C139]")
10
>>> readout_number("CCn1c(=O)c(-c2cc(F)ccc2Cl)c(OC(=O)C(C)(C)C)c2nccnc21 [Compound C151]")
0
>>> readout_number("Cn1c(=O)c(-c2ccccc2I)c(OC(=O)C(C)(C)C)c2nccnc21 [Compound C136]")
8
>>> readout_number("CCn1c(=O)c(-c2cc(OC(F)(F)F)ccc2OC)c(OC(=O)C(C)(C)C)c2nccnc21 [Compound C167]")
2
>>> readout_number("CC(C)C(=O)Oc1c(-c2cc(F)c(Cl)cc2Cl)c(=O)n(C)c2nccnc12 [Compound C148]")
4
>>> readout_number("O=c1[nH]c2nccnc2c(O)c1-c1c(Cl)cc(OC(F)(F)F)cc1Cl [Compound A36]")
8
>>> readout_number("CC(C)C(=O)Oc1c(-c2cc(F)ccc2Cl)c(=O)[nH]c2nccnc12 [Compound B45]")
8
>>> readout_number("CCn1c(=O)c(-c2c(Cl)cc(OC(F)(F)F)cc2Cl)c(O)c2nccnc21 [Compound D11]")
9
>>> readout_number("CC(C)C(=O)Oc1c(-c2cc(F)ccc2Cl)c(=O)n(C)c2nccnc12 [Compound C142]")
7
>>> readout_number("Cc1ccc(C)c(-c2c(OC(=O)C(C)C)c3nccnc3n(C)c2=O)c1 [Compound C133]")
4
>>> readout_number("Cn1c(=O)c(-c2cc(F)ccc2Cl)c(OC(=O)C(C)(C)C)c2nccnc21 [Compound C143]")
8
>>> readout_number("CC(C)(C)C(=O)Oc1c(-c2cc(F)ccc2Cl)c(=O)[nH]c2nccnc12 [Compound B46]")
6
>>> readout_number("CCn1c(=O)c(-c2c(F)ccc(Br)c2Cl)c(OC(=O)C(C)(C)C)c2nccnc21 [Compound C155]")
0
>>> readout_number("Cn1c(=O)c(-c2ccccc2Br)c(OC(=O)C(C)(C)C)c2nccnc21 [Compound C146]")
6
>>> readout_number("CC(C)C(=O)Oc1c(-c2ccccc2OC(F)F)c(=O)n(C)c2nccnc12 [Compound C164]")
4
